Test system: A431
Assay: A431 cell proliferation assay (CellTiter Glo, 72 hours)
Assay type: cell-based
Settings: Homo sapiens, A-431, 72 h, cell proliferation, A431, 72 hours, Table 2; read-out: A431 IC50
pIC50: −log10 of the molar value.
# if value of pIC50 reaches 6, tag Yes; if it stays below, tag No

>  <compound>
CCc1cc(Nc2ncc(Br)c(Nc3ccc(-c4ccc(C#N)cc4)cc3P(C)(C)=O)n2)c(OC)cc1N1CCC(N2CCN(C)CC2)CC1 [Compound 10]

>  <class.name>
No

$$$$

Switching to the query record.
Threshold query (pIC50 >= 6) on COc1cnn(-c2ccc(Nc3nc(Nc4cc(-c5cnn(C)c5)c(N5CCN(C6CCCC6)CC5)cc4OC)ncc3Br)c(P(C)(C)=O)c2)c1 [Compound K-081]
Yes
